# Test system: SR
# measurement-notes: Cytotoxicity against human SR cells assessed as growth inhibition after 72 hrs by MTT assay
# Assay type: functional
Reported GI50 values for a set of compounds
Answer format: numeric, nM implied, no suffix.

Some solved entries appear below for comparison.
O=Nc1c2cccnc2n2nnc3ccc(Cl)cc3c12; 17
COc1cc2nnn3c4ncccc4c(N=O)c3c2cc1OC; 18
COc1ccc2c(c1)nnn1c3ncccc3c(N=O)c21; 9
COc1ccc2c(c1)nnc1c3cccnc3[nH]c21; 31

Now look at this entry.
Input `COc1cc2nnc3c4cccnc4[nH]c3c2cc1OC` . Output GI50: 39

---

# Tested on: MDA-MB-468
# measurement-notes: Cytotoxicity against human MDA-MB-468 cells assessed as growth inhibition after 72 hrs by MTT assay
# Type: functional
# assay-setup: MDA-MB-468, 72 h
measurement-label: GI50 (nM)
# unit: nM | format: bare number

These recorded examples may help you get a feel for the data.
COc1cc2nnc3c4cccnc4[nH]c3c2cc1OC; 230
COc1cc2nnn3c4ncccc4c(N=O)c3c2cc1OC; 160

GET /values?item= `COc1ccc2c(c1)nnn1c3ncccc3c(N=O)c21` &system= MDA-MB-468 returns GI50: 32

The observed GI50 for `COc1ccc2c(c1)nnc1c3cccnc3[nH]c21` when tested with MDA-MB-468 stands at 67

Measured GI50 for this entry `O=Nc1c2cccnc2n2nnc3ccc(Cl)cc3c12` on MDA-MB-468: 140

// data source = ChEMBL document CHEMBL3351507
